- assayed system: CDK4/CyclinD1 (Homo sapiens)
- Sequence (P11802 whole entry): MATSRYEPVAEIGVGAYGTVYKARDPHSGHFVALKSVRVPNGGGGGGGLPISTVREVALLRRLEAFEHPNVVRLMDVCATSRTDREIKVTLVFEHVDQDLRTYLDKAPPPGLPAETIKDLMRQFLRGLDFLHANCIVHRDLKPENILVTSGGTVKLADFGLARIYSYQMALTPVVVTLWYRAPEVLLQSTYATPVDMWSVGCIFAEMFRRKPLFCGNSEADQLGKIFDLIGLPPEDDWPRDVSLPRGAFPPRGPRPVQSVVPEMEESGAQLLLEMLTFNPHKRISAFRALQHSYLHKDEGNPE
- Sequence (P24385 whole entry partner): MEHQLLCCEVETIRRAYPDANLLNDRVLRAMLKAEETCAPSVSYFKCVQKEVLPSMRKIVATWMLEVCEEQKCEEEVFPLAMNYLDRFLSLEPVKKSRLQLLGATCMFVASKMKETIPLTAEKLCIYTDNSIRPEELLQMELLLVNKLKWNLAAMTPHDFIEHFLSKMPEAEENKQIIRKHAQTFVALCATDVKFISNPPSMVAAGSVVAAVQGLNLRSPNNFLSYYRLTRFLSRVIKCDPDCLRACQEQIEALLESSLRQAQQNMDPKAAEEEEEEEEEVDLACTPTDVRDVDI
- assay name: CDK4/CyclinD1 kinase activity test (LANCE Ultra TR-FRET)
- conditions used: 350 μM ATP, 25° C., 120 minutes; read-out: Enzyme activity data (IC50) CDK4/cyclinD1
pIC50: −log10 of the molar value.
recorded metric: pIC50

// known answers, use as guide
{"compound": "COCCS(=O)(=O)N1CCC(Nc2ncc3c(n2)N([C@@H]2CCC[C@@]2(C)O)C(=O)CC3)CC1 [Compound 6]", "result number": 7.42}
{"compound": "CN1CC(S(=O)(=O)N2CCC(Nc3ncc4c(n3)N([C@@H]3CCC[C@@]3(C)O)C(=O)CC4)CC2)C1 [Compound 10]", "result number": 8.04}
{"compound": "CCN1CC(S(=O)(=O)N2CCC(Nc3ncc4c(n3)N([C@@H]3CCC[C@@]3(C)O)C(=O)CC4)CC2)C1 [Compound 8]", "result number": 7.83}

1. C[C@@]1(O)CCC[C@H]1N1C(=O)CCc2cnc(NC3CCN(S(=O)(=O)C4CC4)CC3)nc21 [Compound 3]
2. C[C@@]1(O)CCC[C@H]1N1C(=O)CCc2cnc(NC3CCN(S(=O)(=O)C4CNC4)CC3)nc21 [Compound 7]
Which of the two items, 1 and 2 , has the greater recorded pIC50? Record your answer as the label of the chosen record.
2
(2: 8.40, 1: 7.63)

1. CCS(=O)(=O)N1CCC(Nc2ncc3c(n2)N([C@@H]2CCC[C@@]2(C)O)C(=O)CC3)CC1 [Compound 4]
2. CC(C)N1CC(S(=O)(=O)N2CCC(Nc3ncc4c(n3)N([C@@H]3CCC[C@@]3(C)O)C(=O)CC4)CC2)C1 [Compound 9]
Form field 'greater pIC50' accepts 1 or 2 ; which applies? Answer by quoting the chosen item's label.
2
(2: 7.80, 1: 7.43)

A. CC(C)S(=O)(=O)N1CCC(Nc2ncc3c(n2)N([C@@H]2CCC[C@@]2(C)O)C(=O)CC3)CC1 [Compound 5]
B. C[C@@]1(O)CCC[C@H]1N1C(=O)CCc2cnc(NC3CCN(S(C)(=O)=O)CC3)nc21 [Compound 1A]
Which record shows the lower pIC50: the first, A , or the second, B ? Bench note: the answer is the label of the chosen record.
A

----------
- assay name: Pharmacokinetic evaluation in female Balb/c mice
- Assay type: in vivo
- conditions used: mouse, plasma, Intravenous Injection: 2 mg/kg, read-out: Half-Life T1/2 (converted)
recorded metric: half-life (min)
API: value field is a number in min; no unit string.

For the compound C[C@@]1(O)CCC[C@H]1N1C(=O)CCc2cnc(NC3CCN(S(C)(=O)=O)CC3)nc21 , what half-life is on record?
16.8

----------
- assay name: Pharmacokinetic evaluation in female Balb/c mice
- Assay type: in vivo
- conditions used: mouse, plasma, Oral Administration: 10 mg/kg, read-out: Oral Bioavailability F
- Experimental: Healthy adult female Balb/c mice used in this study were purchased from Shanghai Lingchang Biotechnology Co., Ltd. […] The blood was collected from two animals at each time point by continuous blood collection. […] Drug concentration in the plasma was determined by LC/MS-MS.
recorded metric: bioavailability (%)
Output spec: scalar in %, unitless text.

# get_value(readout='bioavailability', item= C[C@@]1(O)CCC[C@H]1N1C(=O)CCc2cnc(NC3CCN(S(C)(=O)=O)CC3)nc21 )
31.4

----------
- assayed system: CDK9/CyclinT1 (Homo sapiens)
- Sequence (P50750 whole entry): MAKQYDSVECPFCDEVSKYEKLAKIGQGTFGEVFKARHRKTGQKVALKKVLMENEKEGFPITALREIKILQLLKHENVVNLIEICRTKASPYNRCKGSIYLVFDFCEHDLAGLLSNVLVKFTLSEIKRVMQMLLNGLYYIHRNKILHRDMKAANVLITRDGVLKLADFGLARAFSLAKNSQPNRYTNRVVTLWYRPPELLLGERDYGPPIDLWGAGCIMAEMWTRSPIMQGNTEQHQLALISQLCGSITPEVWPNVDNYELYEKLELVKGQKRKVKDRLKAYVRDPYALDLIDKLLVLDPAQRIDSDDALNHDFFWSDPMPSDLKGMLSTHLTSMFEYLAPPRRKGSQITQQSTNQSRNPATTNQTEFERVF
- Sequence (O60563 whole entry partner): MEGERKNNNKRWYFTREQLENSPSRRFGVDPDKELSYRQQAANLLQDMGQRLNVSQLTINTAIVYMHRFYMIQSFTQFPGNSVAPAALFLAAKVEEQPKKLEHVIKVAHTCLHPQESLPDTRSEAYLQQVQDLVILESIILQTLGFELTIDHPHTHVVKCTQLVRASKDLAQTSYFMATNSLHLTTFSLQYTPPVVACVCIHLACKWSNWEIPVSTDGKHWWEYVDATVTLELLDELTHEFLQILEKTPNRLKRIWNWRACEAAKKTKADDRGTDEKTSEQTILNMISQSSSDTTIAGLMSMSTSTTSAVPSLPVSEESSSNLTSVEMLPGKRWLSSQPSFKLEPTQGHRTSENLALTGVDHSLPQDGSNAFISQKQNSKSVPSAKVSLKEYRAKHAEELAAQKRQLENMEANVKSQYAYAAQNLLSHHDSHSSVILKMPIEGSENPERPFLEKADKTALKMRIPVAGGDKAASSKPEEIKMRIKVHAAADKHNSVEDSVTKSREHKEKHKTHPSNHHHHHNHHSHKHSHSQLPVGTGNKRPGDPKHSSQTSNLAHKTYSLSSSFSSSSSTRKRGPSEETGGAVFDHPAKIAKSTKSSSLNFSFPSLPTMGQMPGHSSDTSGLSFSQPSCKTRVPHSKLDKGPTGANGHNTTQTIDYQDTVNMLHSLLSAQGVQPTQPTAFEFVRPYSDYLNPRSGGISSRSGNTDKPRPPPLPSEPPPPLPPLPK
- assay name: CDK9/CyclinT1 kinase activity assay (ADP-Glo)
- conditions used: 100 μM ATP, 25° C., 60 minutes; read-out: Enzyme activity data (IC50) CDK9/CyclinT1
recorded metric: IC50 (nM)

P. C[C@@]1(O)CCC[C@H]1n1c(=O)c(C(F)F)cc2cnc(NC3CCN(S(C)(=O)=O)CC3)nc21 [PF-06873600, reference compound]
Q. C[C@@]1(O)CCC[C@H]1N1C(=O)CCc2cnc(NC3CCN(S(C)(=O)=O)CC3)nc21 [Compound 1A]
# argmax over IC50 for candidates P and Q Answer format: the label of the selected item.
Q
(Q: 110 nM, P: 17.2 nM)

----------
- assayed system: CDK2/CyclinA2 (Homo sapiens, UniProt P24941)
- assay name: CDK2/CyclinA2 kinase activity test (ADP-Glo)
- conditions used: 50 μM ATP, 25° C., 60 minutes; read-out: Enzyme activity data (IC50) CDK2/cyclinA
pIC50: −log10 of the molar value.
recorded metric: pIC50

{"given smiles": "CC(C)S(=O)(=O)N1CCC(Nc2ncc3c(n2)N([C@@H]2CCC[C@@]2(C)O)C(=O)CC3)CC1", "assayed system": "CDK2/CyclinA2 (Homo sapiens, UniProt P24941)", "pIC50": 8.76}
{"given smiles": "C[C@@]1(O)CCC[C@H]1N1C(=O)CCc2cnc(NC3CCN(S(=O)(=O)C4CC4)CC3)nc21", "assayed system": "CDK2/CyclinA2 (Homo sapiens, UniProt P24941)", "pIC50": 8.93}
{"given smiles": "C[C@@]1(O)CCC[C@H]1N1C(=O)CCc2cnc(NC3CCN(S(=O)(=O)C4CNC4)CC3)nc21", "assayed system": "CDK2/CyclinA2 (Homo sapiens, UniProt P24941)", "pIC50": 8.85}
{"given smiles": "CCN1CC(S(=O)(=O)N2CCC(Nc3ncc4c(n3)N([C@@H]3CCC[C@@]3(C)O)C(=O)CC4)CC2)C1", "assayed system": "CDK2/CyclinA2 (Homo sapiens, UniProt P24941)", "pIC50": 8.75}

----------
- assayed system: CDK6/CyclinD1 (Homo sapiens, UniProt Q00534)
- Sequence (Q00534 whole entry): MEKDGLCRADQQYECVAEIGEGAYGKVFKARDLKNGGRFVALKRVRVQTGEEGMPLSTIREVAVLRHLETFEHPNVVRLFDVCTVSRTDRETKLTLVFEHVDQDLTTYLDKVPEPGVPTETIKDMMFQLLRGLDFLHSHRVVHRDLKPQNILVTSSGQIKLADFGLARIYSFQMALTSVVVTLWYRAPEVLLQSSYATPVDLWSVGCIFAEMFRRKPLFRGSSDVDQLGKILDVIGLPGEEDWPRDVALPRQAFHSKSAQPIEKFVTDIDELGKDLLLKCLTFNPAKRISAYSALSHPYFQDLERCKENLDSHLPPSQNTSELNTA
- Sequence (P24385 whole entry partner): as the sequence (P24385 whole entry partner) above
- assay name: CDK6/CyclinD1 kinase activity test (LANCE Ultra TR-FRET)
- conditions used: 250 μM ATP, 25° C., 120 minutes; read-out: Enzyme activity data (IC50) CDK6/cyclinD1
pIC50: −log10 of the molar value.
recorded metric: pIC50

The following compounds have reported results that may help.
{"given smiles": "C[C@@]1(O)CCC[C@H]1N1C(=O)CCc2cnc(NC3CCN(S(=O)(=O)C4CC4)CC3)nc21", "assayed system": "CDK6/CyclinD1 (Homo sapiens, UniProt Q00534)", "recorded metric": "pIC50", "result number": 8.32}
{"given smiles": "COCCS(=O)(=O)N1CCC(Nc2ncc3c(n2)N([C@@H]2CCC[C@@]2(C)O)C(=O)CC3)CC1", "assayed system": "CDK6/CyclinD1 (Homo sapiens, UniProt Q00534)", "recorded metric": "pIC50", "result number": 8.28}
{"given smiles": "CCS(=O)(=O)N1CCC(Nc2ncc3c(n2)N([C@@H]2CCC[C@@]2(C)O)C(=O)CC3)CC1", "assayed system": "CDK6/CyclinD1 (Homo sapiens, UniProt Q00534)", "recorded metric": "pIC50", "result number": 8.27}

A. CC(C)N1CC(S(=O)(=O)N2CCC(Nc3ncc4c(n3)N([C@@H]3CCC[C@@]3(C)O)C(=O)CC4)CC2)C1
B. C[C@@]1(O)CCC[C@H]1N1C(=O)CCc2cnc(NC3CCN(S(C)(=O)=O)CC3)nc21
C. CC(C)S(=O)(=O)N1CCC(Nc2ncc3c(n2)N([C@@H]2CCC[C@@]2(C)O)C(=O)CC3)CC1
Please list the entries, largest pIC50 first. Your answer should be the labels, listed in the requested order.
B, A, C
(B: 8.82, A: 8.43, C: 8.05)
